Each record here notes measured IL-8 secretion, mean.
# test.system: TLR4 (Homo sapiens, UniProt O00206+Q9Y6Y9)
# Construct: expressed in transfected cells; host or cells: HEK293
# Sequence (O00206 24-839): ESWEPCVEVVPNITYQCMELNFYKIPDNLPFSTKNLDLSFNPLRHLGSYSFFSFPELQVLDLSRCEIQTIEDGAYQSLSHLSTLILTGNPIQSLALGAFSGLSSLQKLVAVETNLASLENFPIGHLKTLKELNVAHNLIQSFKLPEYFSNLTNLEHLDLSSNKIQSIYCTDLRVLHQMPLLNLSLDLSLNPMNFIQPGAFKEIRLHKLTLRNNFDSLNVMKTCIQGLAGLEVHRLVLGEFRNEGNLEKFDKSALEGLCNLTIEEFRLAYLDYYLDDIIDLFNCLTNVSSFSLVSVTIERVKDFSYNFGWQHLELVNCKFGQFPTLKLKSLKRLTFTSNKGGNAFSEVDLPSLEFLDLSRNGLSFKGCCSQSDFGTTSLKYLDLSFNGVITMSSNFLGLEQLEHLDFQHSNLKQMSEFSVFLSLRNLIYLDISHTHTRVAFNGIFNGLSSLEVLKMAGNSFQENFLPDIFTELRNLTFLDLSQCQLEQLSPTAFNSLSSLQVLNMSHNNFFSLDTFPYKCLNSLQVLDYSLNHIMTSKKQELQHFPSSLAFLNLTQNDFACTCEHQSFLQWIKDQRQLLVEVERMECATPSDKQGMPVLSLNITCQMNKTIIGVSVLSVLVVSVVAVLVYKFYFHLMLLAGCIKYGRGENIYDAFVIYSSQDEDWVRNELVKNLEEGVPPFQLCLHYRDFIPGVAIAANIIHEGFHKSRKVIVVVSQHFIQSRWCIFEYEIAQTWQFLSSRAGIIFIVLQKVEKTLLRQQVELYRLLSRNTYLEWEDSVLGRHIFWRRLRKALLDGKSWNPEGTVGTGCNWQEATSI
# Sequence (Q9Y6Y9 17-160 limits assumed): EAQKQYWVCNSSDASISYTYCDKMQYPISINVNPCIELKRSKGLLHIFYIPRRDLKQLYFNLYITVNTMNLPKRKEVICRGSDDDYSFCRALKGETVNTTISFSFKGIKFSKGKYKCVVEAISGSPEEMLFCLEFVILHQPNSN
# measurement.description: HEK-MD2-TLR4-CD14 IL-8 secretion
# Format: cell-based
# condition.info: 14 ng/ml, 24 h
# Excerpt: The HEK293 cell line was chosen for its null or low basal expression of the TLR genes. These cells enable efficient monitoring of TLR activity using ELISA analysis such as IL-8 titration or reporter-based systems that monitor TLR-induced NF-κB activation. HEK-TLR2 cells (Invivogen, Toulouse, France) are engineered HEK293 cells stably transfected with multiple genes from the TLR2 pathway that include TLR2 and genes participating in the recognition or involved in the signaling cascade. […]
Don't forget the unit after the number, please.

The cases that follow already have their IL-8 secretion, mean on record.
API: value(readout=IL-8 secretion, mean, system=TLR4 (Homo sapiens, UniProt O00206+Q9Y6Y9)) for record `CCCCCCCCCCCC(=O)O[C@H](CCCCCCCCCCC)CC(=O)N[C@H]1[C@H](OC[C@H]2O[C@H](OCCOP(=O)(O)O)[C@H](NC(=O)C[C@H](O)CCCCCCCCCCC)[C@@H](O)[C@@H]2O)O[C@H](CO)[C@@H](OP(=O)(O)O)[C@@H]1O` 1.83 pg/mL

Subsequent entry: `CCCCCCCCCCCC(=O)O[C@H](CCCCCCCCCCC)CC(=O)N[C@H]1[C@H](OC[C@H]2O[C@H](OCCC)[C@H](NC(=O)C[C@H](O)CCCCCCCCCCC)[C@@H](O)[C@@H]2O)O[C@H](CO)[C@@H](OP(=O)(O)O)[C@@H]1O` 1.88 pg/mL

Then `CCCCCCCCCCCC(=O)O[C@H](CCCCCCCCCCC)CC(=O)N[C@H]1[C@H](OC[C@H]2O[C@H](O)[C@H](NC(=O)C[C@H](O)CCCCCCCCCCC)[C@@H](O)[C@@H]2O)O[C@H](CO)[C@@H](OP(=O)(O)O)[C@@H]1O` ? 1.75 pg/mL

We next turn to a different compound, shown below.
Write down the reported IL-8 secretion, mean of CCCCCCCCCCCC(=O)O[C@H](CCCCCCCCCCC)CC(=O)N[C@H]1[C@H](OC[C@H]2O[C@H](OCC(O)CO)[C@H](NC(=O)C[C@H](O)CCCCCCCCCCC)[C@@H](O)[C@@H]2O)O[C@H](CO)[C@@H](OP(=O)(O)O)[C@@H]1O (stereo partly shown) , test system: TLR4 (Homo sapiens, UniProt O00206+Q9Y6Y9). 1.69 pg/mL
